tested on: Wolbachia pipientis; assay: Anti-Wolbachia Cell-Based Screen; format: functional; parameters: scale not given: in the data most compounds retested in dose-response had high values; settings: 5 µM
Among all 48,000 compounds or so, about 13,000 (27%) showed an effect of 50% or more. The list shows a part of the results.
compounds and their reported Percent Effect
Reply with just the number (in %).

Worked cases, answers included:
CN(CCc1nc2ccccc2c(=O)[nH]1)CCC(F)(F)F: -6.377
Cc1cc2[nH]c(CN3CCOC(Cc4ccccc4)C3)cc(=O)n2n1 (stereo unspecified): -6.493
CCC(CC)C(=O)NCCC(=O)N1CCN(c2ccccn2)CC1: 117
CN1C(=O)COc2ccc(C(=O)Cn3cnc4ccccc4c3=O)cc21: 102.3
CC1=C(CCN2C[C@H](O)[C@@H](N3CCOCC3)C2)C(C)(C)CCC1: 0.7691

Request the reported Percent Effect associated with CC(c1ccccn1)N(C)C(=O)CN1CCN(c2ccccn2)CC1 (stereo unspecified) -2.14

Requested field: Percent Effect. Item: CCCC(C)NCc1cccnc1N1CCN(c2ccccn2)CC1 (stereo unspecified) 8.499

Need Percent Effect, item CNC(=O)c1cccc(C2CNCCN2C)c1 (stereo unspecified) -21.17

Quick one: Percent Effect of CCOc1cccc(NS(=O)(=O)c2cc(C)c(C(=O)O)s2)c1 ? -3.705

# Percent Effect lookup, item COc1ccc(CN2CCC3(CC2)CC(c2cccnc2)CO3)cc1.O=C(O)C(F)(F)F.O=C(O)C(F)(F)F (stereo unspecified) 103.1

Requested read-out: Percent Effect. Entry: CC(=O)Nc1nc(C2CCN(C(=O)c3ccncc3)CC2)cs1 108.8

Could you share which Percent Effect value was measured for Cc1c(Cl)cc(C(=O)NCCc2ncnn2C)cc1Cl ? -11.54

// lookup Percent Effect for CN1C(=O)COc2ccc(C(=O)Cn3cnc4ccsc4c3=O)cc21 115.3

What value of Percent Effect has been recorded for this entry: COc1cc(OC)c(CNC(=O)NCC(=O)N(C)C)c(OC)c1 -14.89

What does the data say about its Percent Effect? Entry: COc1ccc(CN2CCC3(CCN(c4cccnc4)C3=O)C2)cc1.O=C(O)C(F)(F)F.O=C(O)C(F)(F)F (stereo unspecified) -2.008

Need Percent Effect, item COCCN1CC2(CCCN(C(=O)CCCc3cccs3)C2)CCC1=O (stereo unspecified) -3.205
